System: OVCAR-5
Experiment: NCI tumour cell line growth inhibition, 48 h
The source made the active and inactive calls. No stated cut-off is given here; in the data, active = GI50 up to about 1.1 µM and inactive = higher.
Give GI50 for every item shown.

Would you mind telling me what GI50 value was observed for N#CCC1COc2ccccc2O1 (stereo not given) ?
> 10 µM (inactive)

Would you mind telling me what GI50 value was observed for `[N-]=[N+]=C1CNC(=O)NC1=O` ?
> 100 µM (inactive)

Would you mind telling me what GI50 value was observed for O=C(Nc1ccc2[nH]c(C(=O)N3CC(CCl)c4c3cc([N+](=O)[O-])c3ccccc43)cc2c1)c1cc2ccccc2o1 (stereo not given) ?
> 100 µM (inactive)

Would you mind telling me what GI50 value was observed for COC(=O)CNC(=O)C(CSC(=O)OCC1c2ccccc2-c2ccccc21)NC(=O)CCC(NC(=O)OCC1c2ccccc2-c2ccccc21)C(=O)OC (stereo not given) ?
25.6 µM (inactive)

Would you mind telling me what GI50 value was observed for `COc1cc2c(cc1OCCCOc1cc3c(cc1OC)C(=O)N1CCC[C@H]1C(=O)N3)N=C[C@@H]1CCCN1C2=O` ?
25.1 µM (inactive)

---

Give GI50 for every item shown.
System: HOP-62
Experiment: NCI tumour cell line growth inhibition, 48 h
The source made the active and inactive calls. Cut-off read from the data, not from the text of the source: active = GI50 up to about 1.1 µM and inactive = higher.

Would you mind telling me what GI50 value was observed for NC1=NN(c2ccccc2)C(=O)C1C(=O)C(=O)Nc1ccccc1 (configuration not stated) ?
> 100 µM (inactive)

Would you mind telling me what GI50 value was observed for `COC(=O)c1ccc(NCC2=CC(=O)c3ccccc3C2=O)cc1` ?
16.2 µM (inactive)

Would you mind telling me what GI50 value was observed for CC(O)CN1c2ccccc2Sc2ccccc21 (configuration not stated) ?
> 100 µM (inactive)

Would you mind telling me what GI50 value was observed for `Cc1ccc(C(=O)c2nnc(C(=O)c3ccc(C)cc3)nn2)cc1` ?
39.4 µM (inactive)

Would you mind telling me what GI50 value was observed for O=C(O)c1ccccc1CC(Cc1ccccc1)C(=O)O (configuration not stated) ?
> 100 µM (inactive)

Would you mind telling me what GI50 value was observed for `O=c1c2c3c(sc2nc2n1N=CN(c1ccccc1)C2)CCCC3` ?
> 100 µM (inactive)

Would you mind telling me what GI50 value was observed for `CCN(CC)c1ccc2cc(C(=O)Nc3ccccn3)c(=N)oc2c1` ?
22.9 µM (inactive)

Would you mind telling me what GI50 value was observed for `COc1cc2ccc(CC(=O)O)cc2cc1OC` ?
> 100 µM (inactive)

Would you mind telling me what GI50 value was observed for `COc1ccc2c(c1)/c(=C/C#N)c1c3ccccc3[n+](C)n21` ?
5.73 µM (inactive)

Would you mind telling me what GI50 value was observed for COc1nc2ccc(Cl)c(C(O)c3ccccc3)c2nc1OC (configuration not stated) ?
16.5 µM (inactive)

Would you mind telling me what GI50 value was observed for O=C(O)CC1OCC=C2C[N+]3([O-])CCC45c6ccccc6NC4C1C2CC53 (configuration not stated) ?
> 100 µM (inactive)

Would you mind telling me what GI50 value was observed for NC(CCC(=O)O)C(=O)N1CCN(c2nc(N3CCCC3)c3nc(Cl)c(NCc4ccccc4)nc3n2)CC1 (configuration not stated) ?
13.2 µM (inactive)

---

Test system: EKVX
Assay: NCI tumour cell line growth inhibition, 48 h
The source made the active and inactive calls. Cut-off read from the data, not from the text of the source: active = GI50 up to about 1.1 µM and inactive = higher.
// classify into 1 (yes) (active), 0 (no) (inactive)

Fill in: this test's call for `C1=N\c2ccc(cc2)-c2ccc(cc2)/N=C\c2ccccc2OCc2cccc(n2)COc2ccccc2/1` is ___
0 (no)

Fill in: this test's call for `COc1ccc(CNc2nc(NCc3ccc(OC)cc3)nc(N3CCOCC3)n2)cc1` is ___
0 (no)

Fill in: this test's call for `COC(=O)C1=C(C)NC(C)=C(C(=O)OC)C1c1cccc(N=O)c1` is ___
0 (no)

Fill in: this test's call for `C[C@H](CCC(=O)O)[C@H]1CC[C@H]2[C@@H]3C(=O)C[C@@H]4C[C@H](O)CC[C@]4(C)[C@H]3C[C@H](O)[C@]12C` is ___
0 (no)

Fill in: this test's call for `O=C(O)c1ccc(/N=N/c2cc(S(=O)(=O)O)c3cccnc3c2O)cc1` is ___
0 (no)

Fill in: this test's call for CCSC1SC(c2ccccc2)(c2ccccc2)c2ccccc21 (stereo not given) is ___
0 (no)

Fill in: this test's call for OC1(C2(c3ccc(Cl)cc3)CCCC2)c2ccccc2C2=NCCN21 (stereo not given) is ___
0 (no)

Fill in: this test's call for `c1ccc(P(CCP(c2ccccn2)c2ccccn2)c2ccccc2)cc1` is ___
1 (yes)

Fill in: this test's call for C1=C(c2ccccc2)O[C@H](COCc2ccccc2)C(OCc2ccccc2)[C@@H]1OCc1ccccc1 (stereo not given in full) is ___
0 (no)

Fill in: this test's call for OCC1OC(c2cccc3cc(O)c(O)cc23)CC1O (stereo not given) is ___
0 (no)

Fill in: this test's call for `CN(C)CCC(=O)N1C/C(=C\c2ccc(Cl)c(Cl)c2)C(=O)/C(=C/c2ccc(Cl)c(Cl)c2)C1` is ___
1 (yes)

Fill in: this test's call for C=CCC1OC(C)(C)Oc2ccc(OCOCCOC)cc21 (stereo not given) is ___
0 (no)

Fill in: this test's call for C1=C(c2ccccc2)C(N2CCOCC2)Oc2ccccc21 (stereo not given) is ___
0 (no)

Fill in: this test's call for `CCN(CC)c1ccc2cc(C(=O)Nc3ccccn3)c(=N)oc2c1` is ___
0 (no)

Fill in: this test's call for `NCCSC(c1ccccc1)c1ccccc1` is ___
0 (no)

Fill in: this test's call for NC(=S)N/N=C/C1NCCC2CCCCC21 (stereo not given) is ___
1 (yes)

Fill in: this test's call for O=C(O)CCC1COc2ccccc2O1 (stereo not given) is ___
0 (no)

Fill in: this test's call for COc1cc(C2SCC(=O)N2c2ccc(-n3c(-c4ccccc4)nc4ccccc4c3=O)cc2)cc(OC)c1OC (stereo not given) is ___
0 (no)

Fill in: this test's call for O=C(c1ccccc1)c1ccc2c(c1)N=C(c1ccc(Cl)c(Cl)c1)CC(c1ccc3ccccc3c1)N2 (stereo not given) is ___
0 (no)

Fill in: this test's call for `COc1cc2c(cc1C)NC(=O)/C2=C\c1cccnc1` is ___
0 (no)

Fill in: this test's call for CSC1SCC2C(=O)N(C)C3(CC3C)C(=O)OCC(NC(=O)c3nc4ccccc4cc3O)C(=O)NC(C)C(=O)N(C)C1C(=O)N(C)C1(CC1C)C(=O)OCC(NC(=O)c1nc3ccccc3cc1O)C(=O)NC(C)C(=O)N2C (stereo not given) is ___
1 (yes)

Fill in: this test's call for `COC(=O)c1sc2c(Cl)c(Cl)sc2c1Cl` is ___
0 (no)

Fill in: this test's call for `CC(=O)OC(C)(C)/C=C/C(=O)[C@](C)(O)[C@H]1[C@H](O)C[C@@]2(C)[C@@H]3CC=C4[C@@H](C[C@H](O)C(=O)C4(C)C)[C@]3(C)C(=O)C[C@]12C` is ___
1 (yes)

Fill in: this test's call for `O=C(O)CN(c1ccccc1)S(=O)(=O)c1ccc(Cl)cc1` is ___
0 (no)

Fill in: this test's call for `CCOC(=O)C1=C(N)N2C(=N[C@H]3CCCC[C@@H]32)N=C1` is ___
0 (no)

Fill in: this test's call for COC(=O)C1(N2CCOCC2)CCC([C@@H](c2ccccc2)C(C)[N+](=O)[O-])C1 (stereo not given in full) is ___
0 (no)

Fill in: this test's call for `N#CC(C#N)/N=N/c1ccc(-c2nc3ccccc3s2)cc1` is ___
0 (no)

Fill in: this test's call for C=CCCC1(C)CCCNC1=S (stereo not given) is ___
0 (no)

Fill in: this test's call for `c1ccc(Sc2nc(Sc3ccccc3)nc(Sc3ccccc3)n2)cc1` is ___
0 (no)

Fill in: this test's call for COC(=O)C(=O)C(C(=O)C(=O)Nc1ccc(Cl)cc1Cl)c1nc2ccc(Cl)cc2nc1O (stereo not given) is ___
0 (no)

Fill in: this test's call for `O=C(NCCN1CCOCC1)c1ccc(I)cc1` is ___
0 (no)

Fill in: this test's call for S=C1NC(c2ccccc2)NC(c2ccccc2)S1 (stereo not given) is ___
0 (no)

Fill in: this test's call for COc1ccc(C2=Nc3c(nc(SC)[nH]c3=O)NC(c3ccccc3)C2)cc1 (stereo not given) is ___
0 (no)

Fill in: this test's call for `CN(C)CCCn1c2c3ccccc3ccc2c2oc(=O)c3ccccc3c21` is ___
0 (no)

Fill in: this test's call for `Cc1c(C)c2c(c(N)c1C#N)C(=O)N(Nc1ccccc1)C2=O` is ___
0 (no)

Fill in: this test's call for `C/C(=N\Nc1ccc([N+](=O)[O-])cc1[N+](=O)[O-])c1sc(-n2nc(-c3ccccc3)cc2-c2ccccc2)nc1C` is ___
0 (no)

Fill in: this test's call for NC(CCC(=O)O)C(=O)N1CCN(c2nc(N3CCCC3)c3nc(Cl)c(NCc4ccccc4)nc3n2)CC1 (stereo not given) is ___
0 (no)

Fill in: this test's call for `N/C(=N\n1c(=S)[nH]c2ccccc2c1=O)Nn1c(=S)[nH]c2ccccc2c1=O` is ___
0 (no)

Fill in: this test's call for OCC(O)C(O)C(O)C1SC(c2ccccc2)=NN1c1ccccc1 (stereo not given) is ___
0 (no)

Fill in: this test's call for `CC1(C)[C@@H](Cn2ccc(=O)[nH]c2=O)CC[C@@]1(C)CO` is ___
0 (no)
